B1: Caulobacter ParB omega fusion; a variant is named by its letters at X, in order, B8GW30 (parent)
chain: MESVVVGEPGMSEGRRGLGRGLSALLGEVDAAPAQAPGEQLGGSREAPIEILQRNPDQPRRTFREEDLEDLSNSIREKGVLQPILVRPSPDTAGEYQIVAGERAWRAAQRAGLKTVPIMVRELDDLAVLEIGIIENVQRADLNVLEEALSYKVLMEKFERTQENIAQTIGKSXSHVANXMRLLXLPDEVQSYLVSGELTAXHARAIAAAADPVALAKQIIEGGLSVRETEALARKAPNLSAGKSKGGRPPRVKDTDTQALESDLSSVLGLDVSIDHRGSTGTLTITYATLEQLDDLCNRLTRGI

variants of: B1; test: one-hybrid fitness for binding NBS DNA (the Noc-binding site; scaled: cognate 1, non-cognate 0); higher = stronger binding; details: with NBS DNA site
In all, about 81,000 sequences were measured (“one-hybrid fitness for binding NBS DNA”: median about -0.1, highest 2% from about 0.36 on). The sample as a whole holds a higher share of the highest values than the screen did.
I'd appreciate it if you could supply one-hybrid fitness for binding NBS DNA values for the items below.

Below, each entry is followed by its recorded one-hybrid fitness for binding NBS DNA result.
| mutant label | experimental endpoint | result |
| --- | --- | --- |
| QKVR | one-hybrid fitness for binding NBS DNA | 0.423 |
| TDDT | one-hybrid fitness for binding NBS DNA | ≤ 0.2 |
| DKKR | one-hybrid fitness for binding NBS DNA | ≤ 0.2 |

Batch lookup, one-hybrid fitness for binding NBS DNA per entry.
1. QMMR
2. QMMD
3. CLTC
4. DIFG
5. QKVN

Solution:
[0.523, "≤ 0.2", "≤ 0.2", "≤ 0.2", "≤ 0.2"]

Batch lookup, one-hybrid fitness for binding NBS DNA per entry.
1. QKVS
2. QKKR
3. IPNR

Solution:
1: 0.32; 2: 1; 3: ≤ 0.2
